# key: entry, value: time period of clinical symptomatological stage 1
# Test system: G1H-G93A transgenic mice
# procedure.summary: Clinical symptomatological evaluation (day of onset, survival period, disease period, stage periods)
# Assay type: in vivo, mouse
# protocol.conditions: 5 mg/kg oral once a day from 80th day after birth (before onset); average±SD
readout: time period of clinical symptomatological stage 1 (days)

INSERT INTO measurements (molecule, unit_descriptor, value_reported) VALUES
  ('CC(C)(C)COc1ccc(-n2cc(C(=O)O)cn2)cc1C#N', 'days', 7.5),
  ('N#Cc1cc(-c2n[nH]c(-c3ccncc3)n2)ccn1', 'days', 7.4),
  ('Oc1ncnc2[nH]ncc12 [allopurinol, reference compound]', 'days', 6.8),
  ('Cc1nc(-c2ccc(OCC(C)C)c(C#N)c2)sc1C(=O)O', 'days', 7.5);

----------
# System: G1H-G93A transgenic mice
# procedure.summary: Clinical symptomatological evaluation (day of onset, survival period, disease period, stage periods)
# Type: in vivo, mouse
# protocol.conditions: 5 mg/kg oral once a day from 80th day after birth (before onset); average±SD
Entries and their measured disease period follow.
readout: disease period (days)

INSERT INTO results (molecule, target, unit_descriptor, value_reported) VALUES
  ('N#Cc1cc(-c2n[nH]c(-c3ccncc3)n2)ccn1 [compound (b)]', 'G1H-G93A transgenic mice', 'days', 24.3),
  ('CC(C)(C)COc1ccc(-n2cc(C(=O)O)cn2)cc1C#N [compound (a)]', 'G1H-G93A transgenic mice', 'days', 24.9),
  ('Oc1ncnc2[nH]ncc12 [allopurinol, reference compound]', 'G1H-G93A transgenic mice', 'days', 21.0),
  ('Cc1nc(-c2ccc(OCC(C)C)c(C#N)c2)sc1C(=O)O [compound (c)]', 'G1H-G93A transgenic mice', 'days', 25.4);

----------
Each entry below carries its reported time period of clinical symptomatological stage 3.
# Test system: G1H-G93A transgenic mice
# procedure.summary: Clinical symptomatological evaluation (day of onset, survival period, disease period, stage periods)
# Assay type: in vivo, mouse
# protocol.conditions: 5 mg/kg oral once a day from 80th day after birth (before onset); average±SD
readout: time period of clinical symptomatological stage 3 (days)

INSERT INTO measurements (compound, target, unit_descriptor, value_reported) VALUES
  ('N#Cc1cc(-c2n[nH]c(-c3ccncc3)n2)ccn1', 'G1H-G93A transgenic mice', 'days', 5.3),
  ('Cc1nc(-c2ccc(OCC(C)C)c(C#N)c2)sc1C(=O)O', 'G1H-G93A transgenic mice', 'days', 5.4),
  ('Oc1ncnc2[nH]ncc12 [allopurinol, reference compound]', 'G1H-G93A transgenic mice', 'days', 4.4),
  ('CC(C)(C)COc1ccc(-n2cc(C(=O)O)cn2)cc1C#N', 'G1H-G93A transgenic mice', 'days', 5.4);
